# Test target: full-length human RORγt (Homo sapiens, UniProt P51449)
# Construct: expressed in transfected cells; host or cells: HEK293T, transiently transfected with pCMV-BD-ROR
# Assay overview: RORγt (full-length human) Reporter Assay, Conditions A
# Format: cell-based
# Assay setup: HEK293T cells, GAL4-DBD-RORγt, luciferase; read-out: RORγt (FL) Reporter Assay A, IC50
pIC50: −log10 of the molar value.
Measurement name: pIC50

1: CC[C@H](NS(=O)(=O)c1ccc(-c2sc(-c3noc(CC(C)(C)C(=O)O)n3)nc2C(=O)N2CC(F)(F)C[C@@H]2C)c(C(F)F)c1Cl)C(F)(F)F
2: CCN(CC(F)(F)F)C(=O)c1nc(-c2nnc(C(C)(C)O)o2)sc1-c1ccc(S(=O)(=O)N[C@@H](C)C(F)(F)F)c(Cl)c1Cl
Query: Which shows the larger pIC50 value: 1 or 2 ? State the label of the item chosen.
Reply: 2

###

# Test target: full-length human RORγt (Homo sapiens)
# Construct: expressed in transfected cells; host or cells: HEK293T, transiently transfected with pCMV-BD-ROR
# Sequence (P51449 1-497 isoform P51449-2): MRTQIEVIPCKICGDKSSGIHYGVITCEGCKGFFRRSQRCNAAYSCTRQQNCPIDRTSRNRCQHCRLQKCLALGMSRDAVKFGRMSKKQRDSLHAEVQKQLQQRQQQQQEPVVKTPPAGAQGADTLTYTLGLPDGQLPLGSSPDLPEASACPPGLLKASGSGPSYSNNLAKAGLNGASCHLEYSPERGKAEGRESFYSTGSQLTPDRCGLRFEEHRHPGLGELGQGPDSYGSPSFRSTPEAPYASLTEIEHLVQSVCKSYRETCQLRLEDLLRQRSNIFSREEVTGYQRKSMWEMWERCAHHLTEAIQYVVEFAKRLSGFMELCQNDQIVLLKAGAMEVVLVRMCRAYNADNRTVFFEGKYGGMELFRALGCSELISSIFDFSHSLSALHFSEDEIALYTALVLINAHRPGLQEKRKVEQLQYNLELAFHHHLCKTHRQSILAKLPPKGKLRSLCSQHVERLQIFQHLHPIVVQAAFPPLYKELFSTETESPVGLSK
# Assay overview: RORγt (full-length human) Reporter Assay, Conditions A
# Assay type: cell-based
# Assay setup: read-out: RORγt (FL) Reporter Assay A, % inhibition @ 6 μM; 6 μM compound
# Experimental: After overnight (16 to 20 hours) incubation, media were removed and cells were lysed with 20 μL 1× Passive Lysis Buffer (Promega) for 10-15 minutes. Luminescence was measured using a BMG LUMIstar OPTIMA plate reader, after addition of 75 μL/well firefly luciferase buffer, followed by 75 μL/well Renilla luciferase buffer. […] IC50s were generated by plotting final Renilla normalized data against compound concentration and percent inhibition was calculated against DMSO control.
Measurement name: inhibition at 6 µM (%)

C[C@H](NS(=O)(=O)c1ccc(-c2sc(-c3nnc(CC(C)(C)O)o3)nc2C(=O)N2CCC(F)(F)CC2)c(OC(F)F)c1F)C(F)(F)F : 103
CC[C@H](NS(=O)(=O)c1ccc(-c2sc(-c3nnc(C(C)(C)O)o3)nc2C(=O)N2CCC(F)(F)CC2)c(Cl)c1)C(F)(F)F : 103
C[C@H](NS(=O)(=O)c1ccc(-c2sc(-c3nnc(C(C)(C)O)o3)nc2C(=O)N2CC(F)(F)C[C@@H]2C)c(C(F)F)c1F)C(F)(F)F : 108
C[C@H](NS(=O)(=O)c1ccc(-c2sc(-c3nnc(C(C)(C)O)o3)nc2C(=O)N2CCCC[C@@H]2C)c(C(F)F)c1F)C(F)(F)F : 104
CC[C@H](NS(=O)(=O)c1ccc(-c2sc(-c3noc(CC(C)(C)O)n3)nc2C(=O)N2CCC(F)(F)C2)c(C(F)F)c1F)C(F)(F)F : 102
C[C@H](NS(=O)(=O)c1ccc(-c2sc(-c3nnco3)nc2C(=O)N2CCC(F)(F)CC2)c(Cl)c1Cl)C(F)(F)F : 110
